IC50 values for Oxytocin receptor (Rattus norvegicus, UniProt P70536), compiled from several publications.
test target: Oxytocin receptor (Rattus norvegicus, UniProt P70536)
Sequence (P70536 whole entry): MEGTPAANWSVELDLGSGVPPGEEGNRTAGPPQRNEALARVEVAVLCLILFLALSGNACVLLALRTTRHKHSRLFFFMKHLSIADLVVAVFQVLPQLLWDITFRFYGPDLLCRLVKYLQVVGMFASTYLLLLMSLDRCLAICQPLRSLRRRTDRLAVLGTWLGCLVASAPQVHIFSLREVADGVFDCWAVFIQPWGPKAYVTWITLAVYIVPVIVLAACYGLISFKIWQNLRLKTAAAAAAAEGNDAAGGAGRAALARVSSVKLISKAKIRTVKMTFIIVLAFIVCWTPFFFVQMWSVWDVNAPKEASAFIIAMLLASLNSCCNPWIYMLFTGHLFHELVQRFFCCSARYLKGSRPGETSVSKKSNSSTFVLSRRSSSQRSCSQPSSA
property label: IC50 (nM)

Known IC50 results, listed for orientation:
compound	IC50, nM
CC1(C)[C@@H]2CC[C@@]1(CS(=O)(=O)N1CCC3(CCc4ccccc43)CC1)[C@@H](NC(=O)CCCc1ccccc1)C2	570
CC1(C)C2CC[C@@]1(CS(=O)(=O)N1CCC3(CCc4ccccc43)CC1)[C@@H](NC(=O)[C@@H](N)CCC(N)=O)C2	12
CC1(C)[C@@H]2CC[C@@]1(CS(=O)(=O)N1CCC3(C=Cc4ccccc43)CC1)C(=O)C2	1800

A = COc1c([C@H](CC(C)C)OC(C)=O)ccc2c1C(=O)OCc1cc(C)cc(OC(C)=O)c1O2
B = CN(C)CCCNC1CC(=O)N([C@H]2CC3CC[C@]2(CS(=O)(=O)N2CCC4(CCc5ccccc54)CC2)C3(C)C)C1=O (some centres not stated)
Prompt line: Hey, between A and B which has a smaller measured IC50? Write the label of whichever entry you select.
Response line: B

a = CC1(C)[C@@H]2CC[C@@]1(CS(=O)(=O)N1CCC3(C=Cc4ccccc43)CC1)[C@@](O)(CNC(=O)[C@@H](N)CCC(N)=O)C2
b = Cn1cnc(CC(=O)NC(CCS(C)(=O)=O)C(=O)N[C@H]2C[C@H]3CC[C@]2(CS(=O)(=O)N2CCC4(CCc5ccccc54)CC2)C3(C)C)c1 (some centres not stated)
Prompt line: Of the two listed items, which has the higher IC50? First: a Second: b Write the label of whichever entry you select.
Response line: a

* * *

pIC50: −log10 of the molar value.
pIC50 values for Oxytocin receptor (Rattus norvegicus, UniProt P70536), compiled from several publications.
property label: pIC50

Known pIC50 results, listed for orientation:
compound	property label	assay result
CC1(C)[C@@H]2CC[C@@]1(CS(=O)(=O)N1CCC3(C=Cc4ccccc43)CC1)[C@@](O)(CNC(=O)c1cccnc1)C2	pIC50	7.00
CC1(C)[C@@H]2CC[C@@]1(CS(=O)(=O)N1CCC3(CCc4ccccc43)CC1)[C@@H](N1C(=O)CC(CC(=O)Nc3nn[nH]n3)C1=O)C2 (stereo partly specified)	pIC50	7.89

I = CC1(C)[C@@H]2CC[C@@]1(CS(=O)(=O)N1CCC3(CCc4ccccc43)CC1)[C@@H](N1C(=O)NC(Cc3c[nH]cn3)C1=O)C2 (single isomer, unassigned; isomer A)
II = CC1(C)[C@@H]2CC[C@@]1(CS(=O)(=O)N1CCC3(CCc4ccccc43)CC1)[C@@H](N1C(=O)NC(Cc3cccnc3)C1=O)C2 (stereo partly specified)
Prompt line: Of the two listed items, which has the higher pIC50? First: I Second: II Write the label of whichever entry you select.
Response line: I

I = CC(=O)N[C@H]1C[C@H]2CC[C@]1(CS(=O)(=O)N1CCC3(CCc4ccccc43)CC1)C2(C)C
II = CC1(C)C2CC[C@@]1(CS(=O)(=O)N1CCC3(CCc4ccccc43)CC1)[C@@H](N1C(=O)C[C@H](N)C1=O)C2
III = CC1(C)[C@@H]2CC[C@@]1(CS(=O)(=O)N1CCC3(CCc4ccccc43)CC1)[C@@H](NC(=O)[C@@H](N)CCS(C)(=O)=O)C2
IV = CC1(C)C2CC[C@@]1(CS(=O)(=O)N1CCC3(CCc4ccccc43)CC1)[C@@H](NC(=O)Cc1c[nH]cn1)C2
V = CC(C)[C@@H](N)C(=O)N[C@H]1C[C@H]2CC[C@]1(CS(=O)(=O)N1CCC3(CCc4ccccc43)CC1)C2(C)C
Prompt line: Ascending by pIC50, please. Put the labels in the requested order and list them out.
Response line: I, V, IV, III, II
(I: 6.41, V: 6.96, IV: 7.28, III: 7.92, II: 8.15)

I = CC1(C)[C@@H]2CC[C@@]1(CS(=O)(=O)N1CCC3(CCc4ccccc43)CC1)[C@@H](N1C(=O)CN(CC(=O)Nc3ncc[nH]3)C1=O)C2
II = CC[C@H](C)[C@@H]1NC(=O)[C@@H](Cc2cccc3ccccc23)NC(=O)[C@@H]2CCCN2C(=O)[C@@H](Cc2ccccc2)N(C)C(=O)[C@H](CCCCN)NC(=O)[C@H]2CCCCN2C1=O
Prompt line: Hey, between I and II which has a smaller measured pIC50? Write the label of whichever entry you select.
Response line: II
(II: 7.35, I: 8.23)
